Experiment: solvent given as SMILES
Settings: in O=C1CCCC1
endpoint_name: solvation free energy, 298 K (kcal/mol)
Value expressed in kcal/mol; do not type the unit.

Quick check: solvation free energy, 298 K of O=O ?
1.1

Quick check: solvation free energy, 298 K of O=C=O ?
-0.89

Quick check: solvation free energy, 298 K of FS(F)(F)(F)(F)F ?
0.49

Quick check: solvation free energy, 298 K of [2H][2H] ?
1.7

Quick check: solvation free energy, 298 K of C=C ?
-0.6

###

Assay: solvent given as SMILES
Conditions: in CCCCCCCCO
Assign MET whenever solvation free energy, 298 K does not fall below -5 kcal/mol; assign NOT MET whenever it does.

Item ClC(Cl)(Cl)Cl with solvation free energy, 298 K of -5 kcal/mol or above?
MET

Item CC[N+](=O)[O-] with solvation free energy, 298 K of -5 kcal/mol or above?
MET

Item ClC(Cl)=C(c1ccc(Cl)cc1)c1ccc(Cl)cc1 with solvation free energy, 298 K of -5 kcal/mol or above?
NOT MET

Item CCCOCCC with solvation free energy, 298 K of -5 kcal/mol or above?
MET

Item ClCCCl with solvation free energy, 298 K of -5 kcal/mol or above?
MET

Item Clc1ccc(C(c2ccc(Cl)cc2)C(Cl)Cl)cc1 with solvation free energy, 298 K of -5 kcal/mol or above?
NOT MET

Item CCC=O with solvation free energy, 298 K of -5 kcal/mol or above?
MET

Item Clc1ccc(-c2ccc(Cl)cc2Cl)cc1 with solvation free energy, 298 K of -5 kcal/mol or above?
NOT MET

Item ClCCl with solvation free energy, 298 K of -5 kcal/mol or above?
MET

Item Clc1cc(Cl)c(Cl)c(Cl)c1 with solvation free energy, 298 K of -5 kcal/mol or above?
NOT MET

Item FS(F)(F)(F)(F)F with solvation free energy, 298 K of -5 kcal/mol or above?
MET

Item CCC[N+](=O)[O-] with solvation free energy, 298 K of -5 kcal/mol or above?
MET

Item COC(C)=O with solvation free energy, 298 K of -5 kcal/mol or above?
MET

Item COC with solvation free energy, 298 K of -5 kcal/mol or above?
MET

Item CC(N)C(=O)C1OS(=O)OCC2C1C1(Cl)C(Cl)=C(Cl)C2(Cl)C1(Cl)Cl (stereo not drawn) with solvation free energy, 298 K of -5 kcal/mol or above?
NOT MET

Item S=C=S with solvation free energy, 298 K of -5 kcal/mol or above?
MET

Item CCCCCCCC=O with solvation free energy, 298 K of -5 kcal/mol or above?
NOT MET

Item CC(C)CC(C)C with solvation free energy, 298 K of -5 kcal/mol or above?
MET

Item Clc1ccccc1Cl with solvation free energy, 298 K of -5 kcal/mol or above?
NOT MET

Item CCCC=O with solvation free energy, 298 K of -5 kcal/mol or above?
MET

Item C=CCCCCCCC with solvation free energy, 298 K of -5 kcal/mol or above?
NOT MET

Item C=CCCC with solvation free energy, 298 K of -5 kcal/mol or above?
MET

Item O=c1c2ccccc2sc2ccccc12 with solvation free energy, 298 K of -5 kcal/mol or above?
NOT MET

Item Clc1cc(Cl)c(-c2cc(Cl)c(Cl)cc2Cl)cc1Cl with solvation free energy, 298 K of -5 kcal/mol or above?
NOT MET

Item O=C(C(=O)c1ccccc1)c1ccccc1 with solvation free energy, 298 K of -5 kcal/mol or above?
NOT MET

Item Cc1ccc(C(=O)O)cc1 with solvation free energy, 298 K of -5 kcal/mol or above?
NOT MET

Item O=[N+]([O-])c1cc(Cl)ccc1Cl with solvation free energy, 298 K of -5 kcal/mol or above?
NOT MET

Item [N-]=[N+]=O with solvation free energy, 298 K of -5 kcal/mol or above?
MET

Item Cc1ccccc1C with solvation free energy, 298 K of -5 kcal/mol or above?
NOT MET

Item CNC with solvation free energy, 298 K of -5 kcal/mol or above?
MET

Item O=C1c2ccccc2C(=O)c2c(Cl)cccc21 with solvation free energy, 298 K of -5 kcal/mol or above?
NOT MET

Item c1ccc2c(c1)Nc1ccccc1S2 with solvation free energy, 298 K of -5 kcal/mol or above?
NOT MET

Item c1ccccc1 with solvation free energy, 298 K of -5 kcal/mol or above?
MET

Item O=C(O)c1cccc(Cl)c1 with solvation free energy, 298 K of -5 kcal/mol or above?
NOT MET

Item Clc1ccc(Cl)c(-c2cc(Cl)ccc2Cl)c1 with solvation free energy, 298 K of -5 kcal/mol or above?
NOT MET

Item CC=O with solvation free energy, 298 K of -5 kcal/mol or above?
MET

Item Cc1ccccc1C(=O)O with solvation free energy, 298 K of -5 kcal/mol or above?
NOT MET

Item CCCC(C)C with solvation free energy, 298 K of -5 kcal/mol or above?
MET

Item O=O with solvation free energy, 298 K of -5 kcal/mol or above?
MET

Item c1ccc2c(c1)-c1cccc3cccc-2c13 with solvation free energy, 298 K of -5 kcal/mol or above?
NOT MET

Item CC(C)OC(C)C with solvation free energy, 298 K of -5 kcal/mol or above?
MET

Item O=C(O)c1ccc([N+](=O)[O-])cc1 with solvation free energy, 298 K of -5 kcal/mol or above?
NOT MET

Item CCC(C)(C)C(=O)OC1CC(C)C=C2C=CC(C)C(CCC3CC(O)CC(=O)O3)C21 (stereo not drawn) with solvation free energy, 298 K of -5 kcal/mol or above?
NOT MET

Item Clc1ccc(-c2cc(Cl)c(Cl)c(Cl)c2Cl)cc1 with solvation free energy, 298 K of -5 kcal/mol or above?
NOT MET

Item O=C(O)c1cccnc1Nc1cccc(C(F)(F)F)c1 with solvation free energy, 298 K of -5 kcal/mol or above?
NOT MET

Item CCCCCC#N with solvation free energy, 298 K of -5 kcal/mol or above?
NOT MET

Item C=C with solvation free energy, 298 K of -5 kcal/mol or above?
MET

Item CCCCCO with solvation free energy, 298 K of -5 kcal/mol or above?
NOT MET

Item CCCC#N with solvation free energy, 298 K of -5 kcal/mol or above?
MET

Item CC(C)C#N with solvation free energy, 298 K of -5 kcal/mol or above?
MET

Item CCBr with solvation free energy, 298 K of -5 kcal/mol or above?
MET

Item O=S1OCC2C(CO1)C1(Cl)C(Cl)=C(Cl)C2(Cl)C1(Cl)Cl (stereo not drawn) with solvation free energy, 298 K of -5 kcal/mol or above?
NOT MET

Item C1CCCCC1 with solvation free energy, 298 K of -5 kcal/mol or above?
MET

Item FC(F)=CCl with solvation free energy, 298 K of -5 kcal/mol or above?
MET

Item CC(C)CO with solvation free energy, 298 K of -5 kcal/mol or above?
NOT MET

Item CCCCCCCCCCCCCCCCCCO with solvation free energy, 298 K of -5 kcal/mol or above?
NOT MET

Item CCC(=O)CC with solvation free energy, 298 K of -5 kcal/mol or above?
MET

Item O=C(O)c1ccccc1[N+](=O)[O-] with solvation free energy, 298 K of -5 kcal/mol or above?
NOT MET

Item Clc1ccc(-c2cc(Cl)ccc2Cl)cc1 with solvation free energy, 298 K of -5 kcal/mol or above?
NOT MET

Item c1cc2c3c(cccc3c1)CC2 with solvation free energy, 298 K of -5 kcal/mol or above?
NOT MET

Item CCCCCC(C)=O with solvation free energy, 298 K of -5 kcal/mol or above?
NOT MET

Item C1=CCCCC1 with solvation free energy, 298 K of -5 kcal/mol or above?
MET

Item O=C(O)c1cc([N+](=O)[O-])cc([N+](=O)[O-])c1 with solvation free energy, 298 K of -5 kcal/mol or above?
NOT MET

Item Clc1cc(-c2cc(Cl)c(Cl)c(Cl)c2Cl)c(Cl)c(Cl)c1Cl with solvation free energy, 298 K of -5 kcal/mol or above?
NOT MET

Item O=C=O with solvation free energy, 298 K of -5 kcal/mol or above?
MET

Item c1ccc2c(c1)Cc1ccccc1O2 with solvation free energy, 298 K of -5 kcal/mol or above?
NOT MET

Item COc1ccccc1 with solvation free energy, 298 K of -5 kcal/mol or above?
NOT MET

Item Cc1ccccc1 with solvation free energy, 298 K of -5 kcal/mol or above?
MET

Item Cc1ccc(C)cc1 with solvation free energy, 298 K of -5 kcal/mol or above?
NOT MET
